Task for the reader: assign each of the following compounds its reported Kd.
# target-or-system: NS3 (Hepatitis C virus, UniProt A3EZJ3)
# Sequence (A3EZJ3 whole entry): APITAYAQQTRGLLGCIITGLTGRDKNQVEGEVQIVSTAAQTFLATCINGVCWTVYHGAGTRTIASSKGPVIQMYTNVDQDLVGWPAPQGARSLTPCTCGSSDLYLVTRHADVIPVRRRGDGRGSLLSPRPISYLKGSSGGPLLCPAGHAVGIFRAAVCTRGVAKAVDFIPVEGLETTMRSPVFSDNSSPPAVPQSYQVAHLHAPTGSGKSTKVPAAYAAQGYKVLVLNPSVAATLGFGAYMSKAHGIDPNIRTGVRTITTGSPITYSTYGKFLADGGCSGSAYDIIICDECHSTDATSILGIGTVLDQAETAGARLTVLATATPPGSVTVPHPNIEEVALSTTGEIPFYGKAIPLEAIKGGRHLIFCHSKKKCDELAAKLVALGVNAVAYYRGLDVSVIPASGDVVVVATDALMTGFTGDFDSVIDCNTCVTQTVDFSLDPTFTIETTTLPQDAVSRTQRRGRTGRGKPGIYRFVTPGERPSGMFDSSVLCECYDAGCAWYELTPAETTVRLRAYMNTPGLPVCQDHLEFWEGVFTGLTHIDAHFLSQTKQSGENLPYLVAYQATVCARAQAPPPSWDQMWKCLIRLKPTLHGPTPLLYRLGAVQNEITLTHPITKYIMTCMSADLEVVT
# run-description: Dissociation constant for HCV NS3 protease substrate binding site
# Design: species or system Hepacivirus hominis
# test-parameters: read-out: Kd
Write it as a number; the unit mM goes unstated.

q: I'd like to know its Kd. The compound in question is CC(C)C(=O)Nc1ccc(O)c(C(F)(F)F)c1
a: 8

q: I'd like to know its Kd. The compound in question is O=C(O)CCc1cc(I)c(O)c(I)c1
a: 0.09

q: I'd like to know its Kd. The compound in question is COc1ccc2sc(C(=O)O)cc2c1
a: 8

q: I'd like to know its Kd. The compound in question is O=C(O)c1cc2cccc(Cl)c2[nH]1
a: 1.4

q: I'd like to know its Kd. The compound in question is O=C(O)c1cc2c(Cl)cccc2[nH]1
a: 0.8

q: I'd like to know its Kd. The compound in question is CN(C)C(=O)Nc1ccc(O)c(C(F)(F)F)c1
a: 12

q: I'd like to know its Kd. The compound in question is O=C(O)c1cc2cc(Cl)ccc2o1
a: 2.2

q: I'd like to know its Kd. The compound in question is O=C(O)c1cc2ccccc2[nH]1
a: 12

q: I'd like to know its Kd. The compound in question is O=C(O)c1cc2ccccc2s1
a: 1.7

q: I'd like to know its Kd. The compound in question is O=C(O)c1ccccc1Oc1ccc(F)cc1
a: 7

q: I'd like to know its Kd. The compound in question is O=C(O)CCCc1ccc(C(=O)c2ccccc2C(=O)O)cc1
a: 40

---

# target-or-system: NS3 (Hepatitis C virus)
# run-description: Inhibition constant for HCV NS3 protease substrate binding site
measured-property: Ki (µM)
Write it as a number; the unit µM goes unstated.

q: I'd like to know its Ki. The compound in question is O=C(O)CCc1cc(I)c(O)c(I)c1
a: 80

q: I'd like to know its Ki. The compound in question is CC(=O)N[C@H](Cc1cc(I)c(O)c(I)c1)C(=O)O
a: 210

q: I'd like to know its Ki. The compound in question is O=C(O)CC(c1ccccc1)c1cc(I)c(O)c(I)c1 (stereo not given)
a: 100

q: I'd like to know its Ki. The compound in question is O=C(O)CCCc1cc(I)c(O)c(I)c1
a: 180

q: I'd like to know its Ki. The compound in question is O=C(O)C(Cc1cc(I)c(O)c(I)c1)c1ccccc1 (stereo not given) [IODOALPHIONIC ACID]
a: 140

---

# target-or-system: NS3 (Hepatitis C virus)
# run-description: Dissociation constant for HCV NS3 protease substrate binding site
# Set-up: species or system Hepacivirus hominis
# test-parameters: read-out: Kd
pKd: −log10 of the molar value.
Task for the reader: assign each of the following compounds its reported pKd.

q: What is its pKd for NS3 (Hepatitis C virus)? Entry: Nc1cc(O)nc(-c2cc(I)c(O)c(I)c2)n1
a: ~3.64

q: What is its pKd for NS3 (Hepatitis C virus)? Entry: COc1ccc(C(=O)c2ccc[nH]2)cc1
a: < 4.70

q: What is its pKd for NS3 (Hepatitis C virus)? Entry: CNC(=O)Nc1ccc(C(=O)O)cc1
a: < 0.68

q: What is its pKd for NS3 (Hepatitis C virus)? Entry: Cc1ccc(C(=O)O)c(C(=O)c2ccc(O)cc2)c1
a: < 2.30

q: What is its pKd for NS3 (Hepatitis C virus)? Entry: O=C(O)C(Cc1cc([N+](=O)[O-])c(O)c([N+](=O)[O-])c1)c1ccccc1 (centres undefined)
a: < 2.10

q: What is its pKd for NS3 (Hepatitis C virus)? Entry: O=C(O)c1ccc(O)cc1C(=O)c1ccc(O)cc1
a: < 2.00

q: What is its pKd for NS3 (Hepatitis C virus)? Entry: CN(C)C(=O)c1cccc(C(=O)c2ccc(Cl)cc2)c1C(=O)O
a: < 2.00

q: What is its pKd for NS3 (Hepatitis C virus)? Entry: O=C(O)c1ccccc1C(=O)c1ccc(F)cc1
a: ~2.40

q: What is its pKd for NS3 (Hepatitis C virus)? Entry: COc1ccc(NC(=O)CCC(=O)O)cc1
a: < 0.96

// data source = ChEMBL document CHEMBL1148307
